# METHOD: in vivo
# STATED_CONDITIONS: Balb/c nu/nu, mouse, iv, 40 pmol, total radioactivity, Lungs uptake
QUANTITY_MEASURED: tissue uptake at 4 h (%ID/g)

COMPOUND | UNIT_OF_MEASUREMENT | RECORDED_NUMBER
CC(C)C[C@H](NC(=O)C[C@H](O)[C@H](CC(C)C)NC(=O)[C@H](Cc1c[nH]cn1)NC(=O)CNC(=O)[C@@H](NC(=O)[C@H](C)NC(=O)[C@H](Cc1c[nH]c2ccccc12)NC(=O)[C@H](CCC(N)=O)NC(=O)[C@@H](Cc1ccccc1)NC(=O)COCCOCCNC(=O)CCC(C(=O)O)N1CCN(CC(=O)O)CCN(CC(=O)O)CCN(CC(=O)O)CC1)C(C)C)C(N)=O (mixture of isomers) [[^111In]In-DOTAGA-PEG2-RM26, metal not drawn] | %ID/g | 0.11
